Where these numbers come from: ChEMBL document CHEMBL1255398

# Test system: Fonsecaea
# experiment.description: Antimicrobial activity against Fonsecaea nubica isolates after 72 hrs by CLSI M38-A2 protocol method
# Format: functional
Starred links: 1 amine or outer side, 2 acyl side, 3 side chain; linkers in the order of their positions; H or OH if unused. Positions of bridges follow the written chain, without caps; N, C: chain ends. Non-standard residues stand in square brackets, D forms with d. Residues, ends and D or L forms follow the SMILES beside them. *: point of attachment. pTerphenylCO(4''-OnC5H11) = CCCCCOc1ccc(-c2ccc(-c3ccc(C(=O)*)cc3)cc2)cc1; Orn(4R-OH,5R-OH) = O=C([C@H](C[C@@H](O)[C@@H](O)N[*:3])N[*:1])[*:2]; hTyr(3S-OH,4S-OH) = N[C@H](C(=O)O)[C@H](O)[C@@H](O)c1ccc(O)cc1; Pro(3S-OH,4S-Me) = C[C@H]1CN[C@H](C(=O)O)[C@H]1O; Hyp = O=C(O)[C@@H]1C[C@@H](O)CN1
property.label: MIC (µg/mL)
Kindly provide the numeric value in µg/mL only, without the unit symbol.

# input Consider the molecule OC(Cn1cncn1)(Cn1cncn1)c1ccc(F)cc1F [FLUCONAZOLE] and give its measured MIC.
# output 16

# input Now try CCCCCOc1ccc(-c2ccc(-c3ccc(C(=O)N[C@H]4C[C@@H](O)[C@@H](O)NC(=O)[C@@H]5[C@@H](O)[C@@H](C)CN5C(=O)[C@H]([C@@H](C)O)NC(=O)[C@H]([C@H](O)[C@@H](O)c5ccc(O)cc5)NC(=O)[C@@H]5C[C@@H](O)CN5C(=O)[C@H]([C@@H](C)O)NC4=O)cc3)cc2)cc1 [ANIDULAFUNGIN] ({pTerphenylCO(4''-OnC5H11)}-[Orn(4R-OH,5R-OH)]T[Hyp][hTyr(3S-OH,4S-OH)]T[Pro(3S-OH,4S-Me)]; lactam 1-C) .
# output 2

# input Same question, CC[C@H](C)C[C@H](C)CCCCCCCCC(=O)N[C@H]1C[C@@H](O)[C@@H](NCCN)NC(=O)[C@@H]2[C@@H](O)CCN2C(=O)[C@H]([C@H](O)CCN)NC(=O)[C@H]([C@H](O)[C@@H](O)c2ccc(O)cc2)NC(=O)[C@@H]2C[C@@H](O)CN2C(=O)[C@H]([C@@H](C)O)NC1=O [CASPOFUNGIN] this time
# output 2

# input Next up: C[C@@H](c1ncncc1F)[C@](O)(Cn1cncn1)c1ccc(F)cc1F [VORICONAZOLE]
# output 0.25
